# System: Heat shock protein HSP 90 (rabbit reticulocyte lysate; luciferase refolding)
# Measurement Notes: HSP90 inhibitors, primary screen, cell lysate, luminescence (AID 1789);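 note: 0% = DMSO wells and 100% = 60 µM geldanamycin wells; inhibitors lower the luminescence because luciferase stays unfolded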
# Test Context: 3 h, at 5.6 µM, hits give high values
Out of some 290,000 compounds screened, about 2,700 (0.93%) were called active. The sample holds actives, similar compounds and a random draw of the others, so the mix is not that of the screen.
Quantity Kind: inhibition

Known results for compounds:
C=CCn1c(C)cc(C(=O)CN2C(=O)c3ccccc3C2=O)c1C : -0.12% (inactive)
COc1cc(/C=N/NC(=O)c2ccccc2)ccc1OS(=O)(=O)c1ccccc1 : -0.09% (inactive)
NC(=O)Cc1ccc2sc(-c3ccccc3)nc2c1 : 16.4% (active)
COc1ccc(/C=N/NC(=O)c2ccc3c(c2)OCCO3)c(OC)c1 : 2.94% (inactive)
Cc1ccccc1C1CC(c2cccs2)=NN1S(C)(=O)=O (stereo unspecified) : -0.31% (inactive)
COc1ccc(-c2onc3ccc(C(C)=O)cc23)cc1 : 3.03% (inactive)
Cc1ccc(-c2cc(N)on2)cc1 : 3.55% (inactive)
Cc1onc(-c2ccccc2)c1C(=O)N1CCN(S(=O)(=O)c2ccccc2C(F)(F)F)CC1 : -1.81% (inactive)

Problem: Data request, read-out inhibition, for CCn1c(=O)c(=O)[nH]c2c(=O)oc3ccc(S(=O)(=O)Nc4ccc(OC)cc4)cc3c21
Result: 1.48% (inactive)

Problem: Data request, read-out inhibition, for Cc1cc(N2CCOCC2)nc(-c2ccc(Br)cc2)n1
Result: 7.23% (inactive)

Problem: Data request, read-out inhibition, for Cc1ccc(-c2cn3cc([N+](=O)[O-])ccc3n2)cc1
Result: 26.2% (active)

Problem: Data request, read-out inhibition, for CCOC(=O)C1CCN(S(=O)(=O)c2c(C)noc2C)CC1
Result: -1.41% (inactive)
